All values here come from ChEMBL document CHEMBL3867464.

Method: Cytotoxicity against human PH5CH cells assessed as decrease in cell viability after 72 hrs by MTT assay
Format: toxicity, cell-based
// CC50 lookup, one value per entry
Report the value in µM with no unit label.

{"columns": ["Structure", "CC50 / µM"],
 "data": [
  ["CC(C)OC(=O)c1sc(N(COP(=O)(OC(C)(C)C)OC(C)(C)C)c2ncccn2)nc1-c1cnccn1", 50],
  ["CCOC(=O)CCc1sc(Nc2ncccn2)nc1-c1ccccn1", 10.1],
  ["CCOCc1sc(NCc2ncccn2)nc1-c1ccccn1", 50],
  ["CC(C)OC(=O)c1sc(N(COP(=O)(OC(C)(C)C)OC(C)(C)C)c2ncccn2)nc1-c1ccccn1", 50],
  ["CC(C)OC(=O)c1sc(Nc2ncccn2)nc1-c1ccccn1", 49.8]
]}

Incoming: CC50 lookup needed for CC(C)OC(=O)c1sc(Nc2ncccn2)nc1-c1cnccn1 , thanks.
Outgoing: 50

Incoming: Another molecule to check: CCOC(=O)Cc1sc(NCc2ncccn2)nc1-c1ccccn1
Outgoing: 50
